Where these numbers come from: paper PMC8912257

- assayed target: T1, Full-length STAT1 protein (unphosphorylated, U-STAT1) (UniProt P42224 1-750)
- T1 construct: also called STAT1 FL
- T1 sequence (looked up): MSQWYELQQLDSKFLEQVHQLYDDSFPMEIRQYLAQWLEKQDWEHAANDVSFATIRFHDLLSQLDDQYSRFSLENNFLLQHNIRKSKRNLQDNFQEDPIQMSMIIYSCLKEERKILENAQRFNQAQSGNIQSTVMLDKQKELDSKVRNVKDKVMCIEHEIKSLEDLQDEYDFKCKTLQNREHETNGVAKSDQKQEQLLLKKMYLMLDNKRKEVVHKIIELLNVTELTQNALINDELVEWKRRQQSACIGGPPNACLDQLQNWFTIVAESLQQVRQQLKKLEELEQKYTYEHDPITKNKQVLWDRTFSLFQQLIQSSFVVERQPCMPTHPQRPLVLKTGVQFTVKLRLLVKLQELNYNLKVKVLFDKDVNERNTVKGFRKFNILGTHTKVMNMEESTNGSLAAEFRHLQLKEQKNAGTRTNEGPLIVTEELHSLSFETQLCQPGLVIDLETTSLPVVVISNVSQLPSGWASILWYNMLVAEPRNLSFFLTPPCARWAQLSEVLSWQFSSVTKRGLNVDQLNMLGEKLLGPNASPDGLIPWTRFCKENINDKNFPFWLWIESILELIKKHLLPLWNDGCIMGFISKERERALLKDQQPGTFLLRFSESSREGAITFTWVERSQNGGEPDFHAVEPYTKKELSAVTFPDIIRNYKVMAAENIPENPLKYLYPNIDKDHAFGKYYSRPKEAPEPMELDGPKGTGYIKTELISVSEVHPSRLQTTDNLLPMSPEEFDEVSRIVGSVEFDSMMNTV
- assay procedure: ITC
- study conditions: both partners purified
[ ]: non-standard residue; d: D form. pY = N[C@@H](Cc1ccc(OP(=O)(O)O)cc1)C(=O)O
Assign labels as follows, please: condition met for stoichiometry N below 1; condition not met for stoichiometry N equal to or exceeding 1.

>>> class_name("Ac-MWSVFIHGHDGSNKGSKT[pY]TS-NH2 [018 phospho 21-mer peptide (Ac-MWSVFIHGHDGSNKGSKT(pY)TS-NH2)]")
"condition not met"

stoichiometry N strictly < 1 for this binder? Ac-MWSVFIHGHDGSNKGSKTYTS-NH2 [018 21-mer peptide (Ac-MWSVFIHGHDGSNKGSKTYTS-NH2)]
condition not met

stoichiometry N strictly < 1 for this binder? Ac-[pY]DKPH-NH2 (SMILES CC(=O)N[C@@H](Cc1ccc(OP(=O)(O)O)cc1)C(=O)N[C@@H](CC(=O)O)C(=O)N[C@@H](CCCCN)C(=O)N1CCC[C@H]1C(=O)N[C@@H](Cc1c[nH]cn1)C(N)=O, also called pIFNGR 5-mer) [pIFNGR1 5-mer peptide (Ac-pYDKPH-NH2)]
condition met
